Let's look at some molecules and their measured viability, T/C.
Tested on: 156681-154-R-J1-PDC complex spheroid viability;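 further: spheroids exposed to the agents for seven days; 100% = DMSO vehicle control viability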
assay-info: Anticancer human tumor 156681-154-R-J1-PDC patient-derived melanoma cell line growth inhibition [CLK]
study-conditions: second compound 10 µM; first compound 0.316 µM; stronger effect = lower value
Description: A high-throughput screen of multi-cell type tumor spheroids was designed to identify active combinations of […] and targeted small molecules. Complex spheroids include a stromal component modeled by human endothelial cells (HUVEC) and fibroblasts modeled by human mesenchymal stem cells (MSCs). […] Compounds. […] If the clinical Cmax for an agent had not been determined, the highest concentration tested was 10 microM. […]
Please respond with the number in % and leave the unit unwritten.

Return reported viability, T/C. Input molecule: CC(=O)O[C@H]1C(=O)[C@@]2(C)[C@H]([C@H](OC(=O)c3ccccc3)[C@]3(O)C[C@H](OC(=O)[C@H](O)[C@@H](NC(=O)c4ccccc4)c4ccccc4)C(C)=C1C3(C)C)[C@]1(OC(C)=O)CO[C@@H]1C[C@@H]2O + CN1CCN(c2cc(C(=O)Nc3cc4cc(-c5cnn(C)c5)ccc4cn3)ccn2)CC1
0.46

State its viability, T/C for this molecule: COC1C=CCC(C)C(C)S(=O)(=O)NC(=O)c2ccc3c(c2)N(CC2CCC21)CC1(CCCc2cc(Cl)ccc21)CO3 (configuration not stated) + CNC(=O)c1ccc(Nc2nc(OC3CCCC3)c3c(-c4ccc5nc(C)oc5c4)c[nH]c3n2)c(OC)c1
16.2

Could you please provide reported viability, T/C for CC1COCCN1c1cc(C2(S(C)(=N)=O)CC2)nc(-c2ccnc3[nH]ccc23)n1 (configuration not stated) + CN1CCN(c2cc(C(=O)Nc3cc4cc(-c5cnn(C)c5)ccc4cn3)ccn2)CC1 ? Thanks!
0.69

Input CC1COCCN1c1cc(C2(S(C)(=N)=O)CC2)nc(-c2ccnc3[nH]ccc23)n1 (configuration not stated) + CNC(=O)c1ccc(Nc2nc(OC3CCCC3)c3c(-c4ccc5nc(C)oc5c4)c[nH]c3n2)c(OC)c1 , output reported viability, T/C.
30.1

Look up and state reported viability, T/C for COc1c(OCCCN2CCOCC2)ccc2c3n(c(=NC(=O)c4cnc(N)nc4)nc12)CCN3 + CNC(=O)c1ccc(Nc2nc(OC3CCCC3)c3c(-c4ccc5nc(C)oc5c4)c[nH]c3n2)c(OC)c1
1.04

State its viability, T/C for this molecule: CC(=O)O[C@H]1C(=O)[C@@]2(C)[C@H]([C@H](OC(=O)c3ccccc3)[C@]3(O)C[C@H](OC(=O)[C@H](O)[C@@H](NC(=O)c4ccccc4)c4ccccc4)C(C)=C1C3(C)C)[C@]1(OC(C)=O)CO[C@@H]1C[C@@H]2O + CNC(=O)c1ccc(Nc2nc(OC3CCCC3)c3c(-c4ccc5nc(C)oc5c4)c[nH]c3n2)c(OC)c1
55.2

Give the measured viability, T/C for Nc1ccn(C2OC(CO)C(O)C2(F)F)c(=O)n1 (configuration not stated) + CNC(=O)c1ccc(Nc2nc(OC3CCCC3)c3c(-c4ccc5nc(C)oc5c4)c[nH]c3n2)c(OC)c1
9.66

Return viability, T/C (reported value) for this molecule: COc1cccc2c1C(=O)c1c(O)c3c(c(O)c1C2=O)CC(O)(C(=O)CO)CC3OC1CC(N)C(O)C(C)O1 (configuration not stated) + CN1CCN(c2cc(C(=O)Nc3cc4cc(-c5cnn(C)c5)ccc4cn3)ccn2)CC1
2.85

Hello, please tell me recorded viability, T/C for this one: C#Cc1c(F)ccc2cc(O)cc(-c3ncc4c(N5CC6CCC(C5)N6)nc(OCC56CCCN5CC(F)C6)nc4c3F)c12 (configuration not stated) + CNC(=O)c1ccc(Nc2nc(OC3CCCC3)c3c(-c4ccc5nc(C)oc5c4)c[nH]c3n2)c(OC)c1
36.7

Answer with the recorded viability, T/C of CCCS(=O)(=O)Nc1ccc(F)c(C(=O)c2c[nH]c3ncc(-c4ccc(Cl)cc4)cc23)c1F + CNC(=O)c1ccc(Nc2nc(OC3CCCC3)c3c(-c4ccc5nc(C)oc5c4)c[nH]c3n2)c(OC)c1 only.
22.1

Return viability, T/C for the following molecule: C=CC(=O)N1CCN(c2nc(=O)n(-c3c(C)ccnc3C(C)C)c3nc(-c4c(O)cccc4F)c(F)cc23)C(C)C1 (configuration not stated) + CNC(=O)c1ccc(Nc2nc(OC3CCCC3)c3c(-c4ccc5nc(C)oc5c4)c[nH]c3n2)c(OC)c1
37.4

Dear colleague, please send me the reported viability, T/C for COc1cccc2c1C(=O)c1c(O)c3c(c(O)c1C2=O)CC(O)(C(=O)CO)CC3OC1CC(N)C(O)C(C)O1 (configuration not stated) + CNC(=O)c1ccc(Nc2nc(OC3CCCC3)c3c(-c4ccc5nc(C)oc5c4)c[nH]c3n2)c(OC)c1 when you can.
2.01
